- Test system: PMA-differentiated THP-1 cells
- Test: IL-1β production in PMA-differentiated THP-1 cells stimulated with gramicidin (hTHP-1 assay containing 2% fetal bovine serum; Procedures 1 and 2)
- Type: cell-based, human
- Condition Summary: Homo sapiens, THP-1, Table B2; 2% fetal bovine serum; class symbols; read-out: hTHP-1 IC50
Assay Metric: IC50

CCc1nc2c(c(NC(=O)N=S(N)(=O)c3cnc(C(C)(C)O)s3)c1C1CC1)CCC2 (stereo not shown) | 200 to 1000 nM
NS(=O)(=NC(=O)Nc1c2c(nc3c1CCC31CC1)CCC2)c1cnn(C(F)F)c1 (single isomer, unassigned) [Compound 638a] | 1000 to 5000 nM
CCc1c(C(F)(F)F)nc2c(c1NC(=O)N=S(N)(=O)c1cc(C(C)(C)O)cs1)CCC2 (stereo not shown) | 1000 to 5000 nM
CC(C)(O)c1cc(S(N)(=O)=NC(=O)Nc2c3c(nc4c2CCC4(C)C)CCC3)nn1-c1ccc(F)cc1 (stereo not shown) | 1000 to 5000 nM
N[S@@](=O)(=NC(=O)Nc1c2c(nc(C3CC3)c1C1CC1)CCC2)c1ccn(C(F)F)n1 [Compound 728b] | 200 to 1000 nM
CC(C)(O)c1ncc(S(N)(=O)=NC(=O)Nc2c3c(nc4c2CCC4CF)CCC3)s1 (stereo not shown) | 1000 to 5000 nM

Here is another molecule to look at.
Record CC(C)(O)c1ncc(S(N)(=O)=NC(=O)Nc2c3c(nc4c2CC4)CCC3)s1 (stereo not shown) . Reported IC50: 5000 to 30000 nM

====

- Tested on: PMA-differentiated THP-1 cells
- Test: IL-1β production in PMA-differentiated THP-1 cells stimulated with gramicidin (hTHP-1 assay containing 2% fetal bovine serum; Procedures 1 and 2)
- Assay type: cell-based, human
- Condition Summary: Table B4; 2% fetal bovine serum; class symbols; read-out: hTHP-1 IC50
pIC50: −log10 of the molar value.
Assay Metric: pIC50

// solved cases for pIC50 follow
CC(C)n1cc(F)c(S(N)(=O)=NC(=O)Nc2c3c(nc4c2CC[C@H]4C)CCC3)n1 (single isomer, unassigned) [Example 758] | 5.30 to 6.00
CCc1c(C(F)(F)F)nc2c(c1NC(=O)N=S(N)(=O)c1nn(CC)cc1F)CCC2 (single isomer, unassigned) [Example 771] | 6.00 to 6.70
CCn1cc(F)c(S(N)(=O)=NC(=O)Nc2c3c(nc(C(F)(F)F)c2-c2ccccc2)CCC3)n1 (single isomer, unassigned) [Example 767] | 7.40 to 8.10

Record Cc1c(C(F)(F)F)nc(C(F)(F)F)c(C)c1NC(=O)N=S(N)(=O)c1cc(C(C)(C)O)cs1 (single isomer, unassigned) [Example 756] . Reported pIC50: 4.52 to 5.30

Record CCn1cc(F)c(S(N)(=O)=NC(=O)Nc2c3c(nc4c2CCC4)CCC3)n1 (single isomer, unassigned) [Example 762] . Reported pIC50: 4.52 to 5.30

Record CCn1cc(F)c(S(N)(=O)=NC(=O)Nc2c3c(nc(C(F)(F)F)c2-c2ccc(F)cc2)CCC3)n1 (single isomer, unassigned) [Example 787] . Reported pIC50: 7.40 to 8.10

====

- Tested on: PMA-differentiated THP-1 cells
- Test: IL-1β production in PMA-differentiated THP-1 cells stimulated with gramicidin (hTHP-1 assay containing 2% fetal bovine serum; Procedures 1 and 2)
- Assay type: cell-based, human
- Condition Summary: Homo sapiens, THP-1, Table B1; 2% fetal bovine serum; numeric bounds; read-out: Average IC50 of compounds in hTHP-1 assay: hTHP-1 IC50
Assay Metric: IC50

Cc1c(-c2ccccc2)nc2c(c1NC(=O)N=S(N)(=O)c1cnc(C(C)(C)O)s1)CCC2 (stereo not drawn) [Compound 143] | > 30 µM
Cc1nc(C)c(C)c(NC(=O)N=S(N)(=O)c2cnc(C(C)(C)O)s2)c1C (stereo not drawn) [Compound 133] | > 14 µM

Here is another compound to look at.
Record CC(C)c1ncc(F)c(C(C)C)c1NC(=O)N=S(N)(=O)c1ccc(CN(C)C)cc1 (single isomer, unassigned) [Compound 132b] . Reported IC50: > 30 µM

====

- Test system: PMA-differentiated THP-1 cells
- Test: hTHP-1 assay containing 10% fetal bovine serum (IL-1β production, Tables B5 and B6)
- Format: cell-based, human
- Condition Summary: read-out: hTHP-1 IC50 in 10% FBS; hTHP-1 assay containing 10% fetal bovine serum; Table B5; listed as 828
pIC50: −log10 of the molar value.
Assay Metric: pIC50

Record Cc1c(C(F)(F)F)nc2c(c1NC(=O)N=S(N)(=O)c1cnc(C(F)F)s1)CCC2 (single isomer, unassigned) [Compound 1007b] . Reported pIC50: 4.52 to 5.30

====

- Tested on: PMA-differentiated THP-1 cells
- Test: IL-1β production in PMA-differentiated THP-1 cells stimulated with gramicidin (hTHP-1 assay containing 2% fetal bovine serum; Procedures 1 and 2)
- Type: cell-based, human
- Condition Summary: Homo sapiens, THP-1, Table B2; 2% fetal bovine serum; class symbols; read-out: hTHP-1 IC50
pIC50: −log10 of the molar value.
Assay Metric: pIC50

// solved cases for pIC50 follow
CCn1ccc(S(N)(=O)=NC(=O)Nc2c3c(nc4c2CCC4(C)C)CCC3)n1 (stereo not shown) [Compound 603] | 6.70 to 7.40
CCn1ccc([S@](N)(=O)=NC(=O)Nc2c(C)c(C(F)(F)F)nc3c2CCC3)n1 [Compound 731b] | 6.00 to 6.70

Here is another molecule to look at.
NS(=O)(=NC(=O)Nc1c2c(nc3c1CCC31CC1)CCC2)c1cnn(C(F)F)c1 (stereo not shown) [Compound 638] tested on PMA-differentiated THP-1 cells gave pIC50: 4.52 to 5.30

====

- Tested on: PMA-differentiated THP-1 cells
- Test: IL-1β production in PMA-differentiated THP-1 cells stimulated with gramicidin (hTHP-1 assay containing 2% fetal bovine serum; Procedures 1 and 2)
- Type: cell-based, human
- Condition Summary: Table B4; 2% fetal bovine serum; class symbols; read-out: hTHP-1 IC50
pIC50: −log10 of the molar value.
Assay Metric: pIC50

CC(C)n1cc(F)c(S(N)(=O)=NC(=O)Nc2c3c(nc4c2CCC4)CCC3)n1 (single isomer, unassigned) [Example 785] | 6.70 to 7.40
NS(=O)(=NC(=O)Nc1c2c(nc(C3CC3)c1C1CC1)CCC2)c1nn(C(F)F)cc1F (single isomer, unassigned) [Example 764] | 4.52 to 5.30

Record CCn1cc(F)c(S(N)(=O)=NC(=O)Nc2c(-c3ccccc3)cnc3c2CCC3)n1 (single isomer, unassigned) [Example 793] . Reported pIC50: 6.00 to 6.70

====

- System: PMA-differentiated THP-1 cells
- Test: IL-1β production in PMA-differentiated THP-1 cells stimulated with gramicidin (hTHP-1 assay containing 2% fetal bovine serum; Procedures 1 and 2)
- Assay type: cell-based, human
- Condition Summary: Homo sapiens, THP-1, Table B2; 2% fetal bovine serum; class symbols; read-out: hTHP-1 IC50
- Procedure: The following protocol is suitable for testing the activity of the compounds disclosed herein. Procedure 1: IL-1β Production in PMA-Differentiated THP-1 Cells Stimulated with Gramicidin. […] THP-1 cells were treated with PMA (Phorbol 12-myristate 13-acetate) (20 ng/ml) for 16-18 hours. […] The plates were incubated for 18 h at 4° C. and read using the preset HTRF program (donor emission at 620 nm, acceptor emission at 668 nm) of the SpectraMax i3x spectrophotometer (Molecular Devices, software SoftMax 6). […]
pIC50: −log10 of the molar value.
Assay Metric: pIC50

// solved cases for pIC50 follow
CCc1nc2c(c(NC(=O)N=S(N)(=O)c3cc(C(C)(C)O)cs3)c1C1CC1)CCC2 (stereo not drawn) [Compound 654] | 6.00 to 6.70
CC(C)n1nc(S(N)(=O)=NC(=O)Nc2c3c(nc4c2CCC4(C)C)CCC3)cc1C(C)(C)O (stereo not drawn) [Compound 615] | 5.30 to 6.00
Cc1c(C(F)(F)F)nc2c(c1NC(=O)N=[S@@](N)(=O)c1ccn(C)n1)CCC2 [Compound 730b] | 5.30 to 6.00
Cc1c(C(F)(F)F)nc2c(c1NC(=O)N=[S@](N)(=O)c1cnc(C(C)(C)O)s1)CC[C@@H]2C [Compound 608a] | 6.00 to 6.70

Here is another molecule to look at.
CC(C)n1nc(S(N)(=O)=NC(=O)Nc2c3c(nc4c2CCC4(C)C)CCC3)cc1CO (single isomer, unassigned) [Compound 652a] tested on PMA-differentiated THP-1 cells gave pIC50: 6.00 to 6.70

====

- Test system: PMA-differentiated THP-1 cells
- Test: IL-1β production in PMA-differentiated THP-1 cells stimulated with gramicidin (hTHP-1 assay containing 2% fetal bovine serum; Procedures 1 and 2)
- Type: cell-based, human
- Condition Summary: Homo sapiens, THP-1, Table B3; hTHP-1 assay, 2% fetal bovine serum; numeric values; read-out: IC50
- Procedure: The following protocol is suitable for testing the activity of the compounds disclosed herein. Procedure 1: IL-1β Production in PMA-Differentiated THP-1 Cells Stimulated with Gramicidin. […] THP-1 cells were treated with PMA (Phorbol 12-myristate 13-acetate) (20 ng/ml) for 16-18 hours. […] The plates were incubated for 18 h at 4° C. and read using the preset HTRF program (donor emission at 620 nm, acceptor emission at 668 nm) of the SpectraMax i3x spectrophotometer (Molecular Devices, software SoftMax 6). […]
pIC50: −log10 of the molar value.
Assay Metric: pIC50

CC(C)(O)c1csc(S(N)(=O)=NC(=O)Nc2cc(C(F)(F)F)nc3c2CCC3)c1 (single isomer, unassigned) | < 4.52
CCn1nc(S(N)(=O)=NC(=O)Nc2c3c(nc4c2CCC4(C)C)CCC3)cc1CO (single isomer, unassigned) | < 4.52

Record CC(C)(O)c1ncc(S(N)(=O)=NC(=O)Nc2cc(C(F)F)nc3c2CCC3)s1 (stereo not drawn) . Reported pIC50: < 4.52
